Molecular target: human opioid receptor-like (ORL-1) (Homo sapiens, UniProt P41146)
Sequence (P41146 whole entry): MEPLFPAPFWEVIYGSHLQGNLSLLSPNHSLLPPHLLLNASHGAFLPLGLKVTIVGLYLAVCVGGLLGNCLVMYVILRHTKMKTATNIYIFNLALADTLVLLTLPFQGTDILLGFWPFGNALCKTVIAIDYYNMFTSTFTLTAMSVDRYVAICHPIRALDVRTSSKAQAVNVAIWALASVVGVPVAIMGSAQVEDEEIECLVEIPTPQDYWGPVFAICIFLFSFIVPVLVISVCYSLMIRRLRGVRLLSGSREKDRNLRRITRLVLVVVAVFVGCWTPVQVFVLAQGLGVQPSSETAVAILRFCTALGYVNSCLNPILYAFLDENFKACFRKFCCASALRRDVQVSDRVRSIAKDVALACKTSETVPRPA
Assay: ORL-1 receptor [35S]GTPγS functional binding assay
readout.type: EC50 (nM)
Answer with a number only, understood to be in nM.

CON=C(CCC(=O)O)c1nc2ccccc2n([C@H]2C[C@H]3CC[C@@H](C2)N3C2CC3CCCC(C3)C2)c1=O (some centres unmarked)
150
CON=C(CCC(=O)O)c1nc2ccccc2n([C@H]2C[C@H]3COC[C@@H](C2)N3C2CC3CCCCC(C3)C2)c1=O (some centres unmarked)
149
CO/N=C(\CCC(=O)O)c1nc2ccccc2n([C@H]2C[C@H]3CCC[C@@H](C2)N3C2CCCCCCCC2)c1=O
104

Q: State, in one line, measured EC50 of NC(=O)/C(=N\OCC(=O)O)c1nc2ccccc2n([C@H]2C[C@H]3CCC[C@@H](C2)N3C2CC3CCCC(C3)C2)c1=O (some centres unmarked)
Result: 113

Q: Give me measured EC50, please, for this compound: C/C(=N\OCC(=O)O)c1nc2ccccc2n([C@H]2C[C@H]3CCC[C@@H](C2)N3C2CCCCCCCCC2)c1=O
Result: 239

Entry source: patent US9040533B2
